Entries annotated with measured pIC50
target: EGFR (L858R & T790M) (Homo sapiens, UniProt P00533, L858R/T790M); construct: GST; assay: EGFR (L858R & T790M) inhibition assay, HTRF method; conditions: biochemical HTRF; EGFR (T790M/L858R) 2.5 nM, ATP 5 μM, 60 min room temperature
Sequence (P00533 25-1210 T790M/L858R): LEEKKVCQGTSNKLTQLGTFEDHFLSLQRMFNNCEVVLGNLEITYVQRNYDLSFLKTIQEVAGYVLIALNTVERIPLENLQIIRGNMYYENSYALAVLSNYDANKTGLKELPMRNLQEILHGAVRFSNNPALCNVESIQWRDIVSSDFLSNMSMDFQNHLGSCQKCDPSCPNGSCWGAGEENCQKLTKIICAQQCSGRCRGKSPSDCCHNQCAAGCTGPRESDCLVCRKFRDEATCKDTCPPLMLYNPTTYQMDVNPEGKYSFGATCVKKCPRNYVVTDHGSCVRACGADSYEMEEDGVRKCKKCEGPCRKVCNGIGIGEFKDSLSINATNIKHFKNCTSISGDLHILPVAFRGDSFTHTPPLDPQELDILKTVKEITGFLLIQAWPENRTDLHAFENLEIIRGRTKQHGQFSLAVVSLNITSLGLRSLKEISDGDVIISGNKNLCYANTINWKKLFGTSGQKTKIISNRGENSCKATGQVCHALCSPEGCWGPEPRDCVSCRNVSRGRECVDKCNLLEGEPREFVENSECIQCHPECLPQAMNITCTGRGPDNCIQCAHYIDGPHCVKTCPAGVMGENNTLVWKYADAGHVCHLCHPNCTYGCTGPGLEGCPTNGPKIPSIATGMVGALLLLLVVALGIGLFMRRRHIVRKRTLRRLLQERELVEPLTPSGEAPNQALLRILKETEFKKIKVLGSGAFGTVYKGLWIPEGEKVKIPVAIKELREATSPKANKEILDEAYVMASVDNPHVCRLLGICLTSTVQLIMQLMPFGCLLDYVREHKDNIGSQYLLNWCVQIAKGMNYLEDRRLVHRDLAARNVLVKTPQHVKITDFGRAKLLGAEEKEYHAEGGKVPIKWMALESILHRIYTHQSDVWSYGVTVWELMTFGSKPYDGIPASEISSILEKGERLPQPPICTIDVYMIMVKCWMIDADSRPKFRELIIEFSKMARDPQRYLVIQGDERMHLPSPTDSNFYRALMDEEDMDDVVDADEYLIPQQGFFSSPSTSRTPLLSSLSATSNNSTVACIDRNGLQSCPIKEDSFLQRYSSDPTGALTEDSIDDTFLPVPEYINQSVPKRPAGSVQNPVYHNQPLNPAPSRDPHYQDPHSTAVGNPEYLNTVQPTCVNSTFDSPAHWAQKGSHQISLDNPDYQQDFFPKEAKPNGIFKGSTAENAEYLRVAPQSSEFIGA
pIC50: −log10 of the molar value. Structures can show the parent of a compound that is named as a salt.

The following compounds have reported results that may help.
• C=CC(=O)Nc1cccc(Nc2nc(Nc3cnn(C4CCC(O)C4)c3)ncc2F)c1 (stereo not shown) [Compound I-37] = < 7.00
• C=CC(=O)Nc1cccc(Nc2nc(Nc3cnn(C4CCNCC4)c3)ncc2Cl)c1 [Compound I-62, trifluoroacetate] = > 8.00
• C=CC(=O)N1CCCC(Nc2nc(Nc3cnn(C4CCC4)c3)ncc2Cl)C1 (single isomer, unassigned) [II-5 (Enantiomer 1)] = < 7.00
• CN1CCC(n2cc(Nc3ncc(Cl)c(Nc4cccc(NC(=O)C=C5CCOCC5)c4)n3)cn2)CC1 [Compound I-26] = < 7.00
• C=CC(=O)Nc1cccc(Nc2nc(Nc3nnc(N4CCN(C)CC4)s3)ncc2Cl)c1 [Compound I-41] = 7.00 to 8.00

Need pIC50, item C=CC(=O)Nc1cccc(Nc2nc(Nc3cnn(C4CCCC(O)C4)c3)ncc2Cl)c1 (stereo not shown) [Compound I-38]
< 7.00

Any idea what its pIC50 is? The compound is C=CC(=O)Nc1cccc(Nc2nc(Nc3nnc(C(F)(F)F)s3)ncc2Cl)c1 [Compound I-44]
< 7.00

For the compound shown here, C=CC(=O)Nc1cccc(Nc2nc(Nc3c(C)nn(C)c3C)ncc2Cl)c1 [Compound I-11] , give the reported pIC50.
< 7.00

Param item = C=CC(=O)Nc1cccc(Oc2nc(Nc3c(C)nn(C4CCN(C)CC4)c3C)ncc2Cl)c1 [Compound I-83] ; retrieve measured pIC50.
< 7.00

Would you mind telling me what pIC50 value was observed for C=CC(=O)Nc1cc(Nc2nc(Nc3cnn(C4CCN(C)CC4)c3)ncc2Cl)ccc1F [Compound I-67] ?
7.00 to 8.00

Item C=CC(=O)NC1CCCC(Nc2nc(Nc3cc(Cl)n(C)n3)ncc2Cl)C1 (stereo not shown) [Compound I-97] has what recorded pIC50?
< 7.00

Field request: pIC50 | item: C=CC(=O)NC1CCCC(Nc2nc(Nc3cnn(CCN(C)C)c3)ncc2Cl)C1 (stereo not shown) [Compound I-99]
< 7.00

Please look up its pIC50: CN(C)C/C=C/C(=O)N[C@H]1CCC[C@H](CNc2nc(Nc3cnn(C)c3)ncc2Cl)C1 (single isomer, unassigned) [I-103 (diastereomer 2)]
< 7.00
